Here the recorded T m (°C) Apo is given for each entry.
test: Differential scanning fluorimetry (DSF), apparent Tm of YggS forms; type: physicochemical; settings: apo-form, 2 μM protein, no PLP
Assay Endpoint: T m (°C) Apo

{"columns": ["Molecule", "Data Value"],
 "data": [
  ["ΔK233/K234: E. coli YggS variant lacking the last two C-terminal residues K233 and K234 (protein, left off: His-tag, N-terminal, state not stated) MNDIAHNLAQVRDKISAAATRCGRSPEEITLLAVSKTKPASAIAEAIDAGQRQFGENYVQEGVDKIRHFQELGVTGLEWHFIGPLQSNKSRLVAEHFDWCHTIDRLRIATRLNDQRPAELPPLNVLIQINISDENSKSGIQLAELDELAAAVAELPRLRLRGLMAIPAPESEYVRQFEVARQMAVAFAGLKTRYPHIDTLSLGMSDDMEAAIAAGSTMVRIGTAIFGARDYS", 61.4],
  ["K137A: E. coli YggS single lysine variant K137A (protein, left off: His-tag, C-terminal, state not stated) MNDIAHNLAQVRDKISAAATRCGRSPEEITLLAVSKTKPASAIAEAIDAGQRQFGENYVQEGVDKIRHFQELGVTGLEWHFIGPLQSNKSRLVAEHFDWCHTIDRLRIATRLNDQRPAELPPLNVLIQINISDENSASGIQLAELDELAAAVAELPRLRLRGLMAIPAPESEYVRQFEVARQMAVAFAGLKTRYPHIDTLSLGMSDDMEAAIAAGSTMVRIGTAIFGARDYSKK", 60.3]
]}

Taken from paper PMC9601805.
